Quick list: inhibition of aggregation per entry.
# procedure-summary: reduction of polyQ htt aggregates in cells – imaging, exon1htt(103Q)mCFP cells, high-content imaging, primary screen (AID 483);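 further: compound exposure lasted 3 days before fixation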
# measurement-setup: exon1htt(103Q)mCFP cell line, aggregate imaging, at 2 µM; stronger effect = higher value
Could you give me the number in %? Just the number is fine.

Answered examples (3):
molecule: CC(=O)NC1(c2nnnn2CCOC(=O)Nc2ccc(Cl)cc2)CCCCC1
readout-number: 2.9
//
molecule: Cc1cc(C(=O)Nc2ccc(S(=O)(=O)Nc3onc(C)c3C)cc2)cs1
readout-number: 15.4
//
molecule: O=C1CC(Sc2nnc(-c3ccccc3)o2)C(=O)N1c1ccccc1 (centres undefined)
readout-number: 3.6

Entry "N#Cc1cnc2sc3ccccc3n2c1=N" ; inhibition of aggregation = 5.1

----------
# procedure-summary: inhibitors of TNFa-induced NFkB p65 translocation, primary screen, imaging, HUVEC, MLSMR starter and 10KST1 sets (AID 438);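 further: compound added about 3h40 before a 20 min TNFalpha stimulation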
# measurement-setup: HUVEC TNFa-induced p65 nuclear translocation; measured here: nuclei count (cytotoxicity indicator), at 2.08 µM
Binary call on cell count: Yes from 400 upward, No beneath that.

molecule: c1cncc(C2Nc3ccccc3-c3nc4ccccc4n32)c1 (stereo unspecified)
class: Yes
--
molecule: Cc1ccc(-c2nnc(SCC(=O)N3CC(C)CC(C)C3)o2)cc1C (stereo unspecified)
class: Yes
--
molecule: CCOc1nc(-c2ccccc2)ccc1-c1noc(-c2cccnc2)n1
class: No
--
molecule: CCN(CCO)C1CC(=O)N(c2ccccc2C)C1=O (stereo unspecified)
class: Yes
--
molecule: O=C(C1CCN(S(=O)(=O)c2cccnc2)CC1)N1CCN(c2ccc(Cl)cc2)CC1
class: Yes

Q: Is cell count at least 400? Consider "COc1cc(C)nc(OCCNC(=O)COc2ccc(Cl)cc2C)n1"
A: Yes

Q: Is cell count at least 400? Consider CC(=O)c1cccc(NC(=O)N2C3CCC2CC(O)(c2cccnc2)C3)c1 (stereo unspecified)
A: Yes

Q: Is cell count at least 400? Consider "COC(=O)c1cn(C(=O)OC)c2ccccc12"
A: Yes

----------
# target: Voltage-gated potassium channel subunit beta-2 (Rattus norvegicus) (UniProt P62483)
# Sequence (P62483 whole entry, looked up): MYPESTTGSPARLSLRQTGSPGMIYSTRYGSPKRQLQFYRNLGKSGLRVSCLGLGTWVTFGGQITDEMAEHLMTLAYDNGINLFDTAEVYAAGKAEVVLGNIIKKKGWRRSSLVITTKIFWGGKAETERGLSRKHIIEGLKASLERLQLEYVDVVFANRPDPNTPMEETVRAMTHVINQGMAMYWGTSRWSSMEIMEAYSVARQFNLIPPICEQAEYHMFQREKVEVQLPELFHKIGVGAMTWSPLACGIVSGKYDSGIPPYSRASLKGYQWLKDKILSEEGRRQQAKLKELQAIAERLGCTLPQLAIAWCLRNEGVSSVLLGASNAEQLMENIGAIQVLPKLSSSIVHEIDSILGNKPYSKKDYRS
# procedure-summary: inhibitors of rat Kvbeta2 reductase activity – biochemical, NADPH fluorescence, primary screen (AID 622);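 further: slope of raw intensity against log time taken from 70 to 1610 s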
# measurement-setup: recombinant KvBeta, 4-cyanobenzaldehyde reduction, at 10 µM, stronger effect = higher value
Quick list: fluorescence slope per entry.
No unit in the answer, only the number.

Answered examples (6):
molecule: CC12CCC(C(=O)N3CCN(C(=O)C45CCC(C)(C(=O)O4)C5(C)C)CC3)(OC1=O)C2(C)C
fluorescence slope: -0.391

molecule: CCC(=O)Nc1cc(Cl)ccc1N1CCN(C(=O)CC)CC1
fluorescence slope: -0.465

molecule: CN(C)c1ccc(C(=O)OCC(=O)NC2CCCCC2)cc1
fluorescence slope: -0.475

molecule: O=C(CSc1nnc(-c2ccc(Br)cc2)n1C1CCCCC1)N1CCCC1
fluorescence slope: -0.371

molecule: COc1ccc(C(=O)CSc2nc(C)cc(=O)[nH]2)cc1
fluorescence slope: -0.506

molecule: Cc1c(C#N)c(N)c(C(=O)c2ccccc2)n1Cc1ccccc1
fluorescence slope: -0.512

Entry "CC1(C)CC(=O)c2c(O)cc(O)cc2O1" ; fluorescence slope = -0.482

Entry "Cc1cccc2c1N(CC(=O)OC(C)C)C(=O)C2=O" ; fluorescence slope = -0.612

Entry Cc1ccc(N(C(=O)C2CCC(=O)N2)C2(C(=O)NC3CCCCC3)CCCCC2)cc1 (stereo not given) ; fluorescence slope = -0.558

Entry CC(C)(C)n1nnnc1C(c1cccs1)N1CCN(Cc2ccccc2)CC1 (stereo not given) ; fluorescence slope = -0.606

----------
Quick list: inhibition of aggregation per entry.
# procedure-summary: reduction of polyQ htt aggregates in cells – imaging, exon1htt(103Q)mCFP cells, high-content imaging, primary screen (AID 483);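 further: compound exposure lasted 3 days before fixation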
# measurement-setup: exon1htt(103Q)mCFP cell line, aggregate imaging, at 2 µM; stronger effect = higher value
Could you give me the number in %? Just the number is fine.

Answered examples (3):
compound: O=C(Cn1c(=O)oc2ccccc21)N1CCN(c2ccccc2)CC1
inhibition of aggregation (%): 10

compound: O=C(c1cccnc1NCc1ccccc1)N1CCOCC1
inhibition of aggregation (%): 5.4

compound: CCOC(=O)c1c(-c2ccc(C)o2)csc1NC(=O)CN1CCN(CC)CC1
inhibition of aggregation (%): 8.3

Entry "Cc1nc2ccccc2n1CCC(=O)Nc1cccc(F)c1" ; inhibition of aggregation = 0.2

Entry COc1cc(S(=O)(=O)NC2CCCCC2C)ccc1Cl (centres undefined) ; inhibition of aggregation = -2

----------
# procedure-summary: endothelial E-selectin expression blockers – imaging, HUVEC, immunofluorescence, MLSMR starter and 10KST1 sets, primary screen (AID 487);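 on inhibition: signal is fraction of cell area covered by stained E-selectin grains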
# measurement-setup: HUVEC TNFalpha-induced E-selectin immunofluorescence imaging, at 2 µM; stronger effect = higher value
Quick list: inhibition per entry.
Could you give me the number in %? Just the number is fine.

Answered examples (10):
compound: O=C(O)c1ccc2noc(-c3ccccc3)c2c1
test-readout: inhibition
value-unit: %
readout-number: -15
--
compound: CCC(=O)c1cc(F)c(N2CCN(C(=O)c3ccco3)CC2)cc1C
test-readout: inhibition
value-unit: %
readout-number: -10.1
--
compound: Cc1cc(NC(=O)CSc2nc(C3CCCCC3)nc3ccccc23)no1
test-readout: inhibition
value-unit: %
readout-number: -10.7
--
compound: CCOC(=O)Cn1c(N2CCOCC2)nc2c1c(=O)[nH]c(=O)n2C
test-readout: inhibition
value-unit: %
readout-number: -0.1
--
compound: CC(C)(C)OC(=O)N1CCC(C(=O)N2CCCCCC2)CC1
test-readout: inhibition
value-unit: %
readout-number: -36.8
--
compound: CCC(C)NCC(O)COCc1ccc(Cl)cc1 (stereo not given)
test-readout: inhibition
value-unit: %
readout-number: -9.3
--
compound: CC(C)CN(CC(C)C)C(=O)C12CCC(C)(C(=O)C1)C2(C)C (stereo not given)
test-readout: inhibition
value-unit: %
readout-number: -45.3
--
compound: COc1ccc(S(=O)(=O)NCCSCc2ccco2)cc1Cl
test-readout: inhibition
value-unit: %
readout-number: 13.2
--
compound: O=C1CN(C(=O)COC(=O)C23CC4CC(CC(O)(C4)C2)C3)c2ccccc2N1
test-readout: inhibition
value-unit: %
readout-number: -44.5
--
compound: Cc1c(C)c2ccc(OC3CCCCC3=O)cc2oc1=O (stereo not given)
test-readout: inhibition
value-unit: %
readout-number: 38.5

Entry "CCN(c1ccc(OC)cc1)S(=O)(=O)c1ccc2c(c1)CCN2C(=O)CCC(=O)O" ; inhibition = -35.6

Entry O=C(CN(CC1CCCO1)C(=O)CCC(=O)Nc1ccccn1)NCC1CCCO1 (stereo not given) ; inhibition = -8.5

Entry "Cn1cnc2c(N3CCCCC3)nccc21" ; inhibition = -88.5

Entry "COc1ccc(-c2nnc(SCc3nnc(-c4ccc(Cl)cc4)o3)n2-c2ccccc2)cc1" ; inhibition = 17.2

Entry "O=C(Nc1nnc(C2CCCC2)s1)C1CCN(S(=O)(=O)c2ccc(Cl)cc2)CC1" ; inhibition = -83.1

Entry "Cc1onc(-c2ccccc2)c1C(=O)N1CCOCC1" ; inhibition = -39.2

Entry "CCCCn1c(SCC(=O)OCC)nc2c1c(=O)[nH]c(=O)n2C" ; inhibition = 7.7

Entry Oc1ccccc1C1=Nc2nc3ccccc3n2C(c2ccccc2)C1 (stereo not given) ; inhibition = -49.5

Entry "CC(=O)N1C(=O)C2(Nc3ccccc3N2)c2ccccc21" ; inhibition = 20.6

Entry "CCn1cnc2cc(NCc3cccc(OC)c3O)ccc21" ; inhibition = -18.2

----------
# procedure-summary: reduction of polyQ htt aggregates in cells – imaging, exon1htt(103Q)mCFP cells, high-content imaging, primary screen (AID 483);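 further: compound exposure lasted 3 days before fixation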
# measurement-setup: exon1htt(103Q)mCFP cell line, aggregate imaging, at 2 µM; stronger effect = higher value
test-readout: inhibition of aggregation (%)
Could you give me the number in %? Just the number is fine.

compound: O=C(NCCCN1CCCC1=O)c1cccnc1
test-readout: inhibition of aggregation
readout-number: -3.8

Entry "N#CCSc1nc(-c2ccccc2)cs1" ; inhibition of aggregation = 1.3

Entry "N#Cc1c(-c2ccc3c(c2)OCO3)csc1N" ; inhibition of aggregation = 7.8

Entry "Cc1ccc2cc(C#N)c(N3CCCC3)nc2c1C" ; inhibition of aggregation = 10

Entry "CCOC(=O)c1sc(NS(=O)(=O)c2ccc(NC(C)=O)cc2)nc1C" ; inhibition of aggregation = -10.1

Entry CC(C)(C)NC(=O)C(Cc1ccccc1)NS(=O)(=O)c1cccc2nsnc12 (configuration not stated) ; inhibition of aggregation = -37.6

Entry COC(=O)C(C)C1Sc2ccccc2NC1=O (configuration not stated) ; inhibition of aggregation = -4.9

----------
# procedure-summary: endothelial E-selectin expression blockers – imaging, HUVEC, immunofluorescence, MLSMR starter and 10KST1 sets, primary screen (AID 487);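 on nuclei count: 100% = median nuclei count of all wells on the same plate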
# measurement-setup: HUVEC TNFalpha-induced E-selectin immunofluorescence imaging, at 2 µM; measured here: cell number, toxicity
Quick list: nuclei count per entry.
Could you give me the number in %? Just the number is fine.

compound: O=C(NC1CCCCCC1)C1CCCN(S(=O)(=O)c2cccs2)C1 (stereo unspecified)
test-readout: nuclei count
value-unit: %
readout-number: 108
//
compound: O=C(c1ccco1)c1nnn(Cc2ccccc2)c1-c1ccccc1
test-readout: nuclei count
value-unit: %
readout-number: 116
//
compound: COC(=O)Cn1cnc2sc(C)c(S(=O)(=O)N3CCC(C)CC3)c2c1=O
test-readout: nuclei count
value-unit: %
readout-number: 101
//
compound: CC(C)C(=O)Nc1cccc(NC(=O)c2cccnc2)c1
test-readout: nuclei count
value-unit: %
readout-number: 104
//
compound: CCCN(CCC)CCNS(=O)(=O)c1ccc2c(c1)oc(=O)n2C
test-readout: nuclei count
value-unit: %
readout-number: 119

Entry "CC(=O)N(CCc1ccccc1C)Cc1cc2cc3c(cc2[nH]c1=O)OCO3" ; nuclei count = 116

Entry "O=C(NCc1ccco1)c1cccc(-c2nnc(-c3ccccc3)o2)c1" ; nuclei count = 124

Entry "O=C(NC1CCCCC1)N(Cc1ccc(F)cc1)Cc1nc2ccccc2c(=O)[nH]1" ; nuclei count = 99

Entry CCOC(=O)c1ccc(NS(=O)C23CC4CC(CC(C4)C2)C3)cc1 (stereo unspecified) ; nuclei count = 134

Entry CCC(C(=O)NC1CCCC1)N(Cc1ccco1)C(=O)Cn1nnc(-c2ccc(C)cc2)n1 (stereo unspecified) ; nuclei count = 112

Entry COCCNC(=O)C(c1ccc(C)o1)N(C(=O)c1snc(C(N)=O)c1N)c1ccc(C)cc1 (stereo unspecified) ; nuclei count = 65.5
